Experiment: Pharmacokinetics and bioavailability test in rats (Example 60)
Type: in vivo
Settings: Sprague-Dawley, rat, plasma; SD rats, IV 2.5 mg/kg
Reported half-life is given for each of the following compounds.
ENDPOINT LABEL: half-life (h)

COMPOUND	UNIT SPEC	RESULT
O=C1CCC(N2C(=O)c3ccc(N4CCC(N5CCN(c6ccc(N(C(=O)NCc7ccccc7F)[C@H]7CC[C@H](Nc8ncc9ccccc9n8)CC7)cc6)CC5)CC4)cc3C2=O)C(=O)N1 (stereo partly shown)	h	6.19
O=C1CCC(N2C(=O)c3ccc(N4CCC(N5CCN(c6ccc(N(C(=O)NCc7ccccc7)[C@H]7CC[C@H](Nc8ncc9ccccc9n8)CC7)cc6F)CC5)CC4)cc3C2=O)C(=O)N1 (stereo partly shown)	h	8.54
O=C1CCC(N2C(=O)c3ccc(N4CCC(N5CCN(c6ccc(N(C(=O)NCc7ccccc7)[C@H]7CC[C@H](Nc8ncc9ccccc9n8)CC7)cc6)CC5)CC4)cc3C2=O)C(=O)N1 (stereo partly shown)	h	7.05
O=C1CCC(N2C(=O)c3ccc(N4CCC(CN5CCN(c6ccc(N(C(=O)NCc7ccccc7)[C@H]7CC[C@H](Nc8ncc9ccccc9n8)CC7)cc6)CC5)CC4)cc3C2=O)C(=O)N1 (stereo partly shown)	h	13.8
O=C1CCC(N2C(=O)c3cc(F)c(N4CCC(N5CCN(c6ccc(N(C(=O)NCc7ccccc7)[C@H]7CC[C@H](Nc8ncc9ccccc9n8)CC7)cc6)CC5)CC4)cc3C2=O)C(=O)N1 (stereo partly shown)	h	10.8
O=C1CCC(N2C(=O)c3cc(F)c(N4CCC(N5CCN(c6ccc(N(C(=O)NCc7ccccc7)[C@H]7CC[C@H](Nc8ncc9ccccc9n8)CC7)cn6)CC5)CC4)cc3C2=O)C(=O)N1 (stereo partly shown)	h	5.15
O=C1CCC(N2C(=O)c3ccc(N4CCC(N5CCN(c6ccc(N(C(=O)NCc7ccccc7)[C@H]7CC[C@H](Nc8ncc9ccccc9n8)CC7)cn6)CC5)CC4)cc3C2=O)C(=O)N1 (stereo partly shown)	h	3.81
